assay: The drug is tested on WLS-073 corresponding to human gut metagenome with ENA study accession number: PRJEB37062 and ENA sample accession number: ERS12561749 for biotransformation under anaerobic condition. The drug concentrations were measured over 9 timepoints collected between 0 and 24 hours of incubation by liquid-chromatography-coupled mass spectrometry (LC–MS); details: 2 µM; also: call rule not given here
reported endpoint: Bacterial Biotransformation

C[C@@H]1CC[C@H]2[C@@H](C)C(=O)O[C@@H]3O[C@@]4(C)CC[C@@H]1[C@]32OO4 [ARTEMISININ]    Compound metabolized
O=C(Nc1ccccc1)OCC(CN1CCCCC1)OC(=O)Nc1ccccc1 (centres undefined) [DIPERODON]    Compound NOT metabolized
CC(C)(C#N)c1cc(Cn2cncn2)cc(C(C)(C)C#N)c1 [ANASTROZOLE]    Compound NOT metabolized
CCC(COC(=O)c1cc(OC)c(OC)c(OC)c1)(c1ccccc1)N(C)C.O=C(O)/C=C\C(=O)O (centres undefined)    Compound NOT metabolized
CCCCC1=NC2(CCCC2)C(=O)N1Cc1ccc(-c2ccccc2-c2nnn[nH]2)cc1 [IRBESARTAN]    Compound metabolized

Any idea what its Bacterial Biotransformation is? The compound is Cc1nc2n(c(=O)c1CCN1CCC(c3noc4cc(F)ccc34)CC1)CCCC2O (centres undefined) [PALIPERIDONE]
Compound metabolized

Repeat for the following compound: CC(=O)OCC(=O)[C@@]1(O)[C@@H](C)C[C@H]2[C@@H]3CCC4=CC(=O)C=C[C@]4(C)[C@@]3(F)[C@@H](O)C[C@@]21C [BETAMETHASONE ACETATE]
Compound NOT metabolized

Check OCCN1CCN(CCCN2c3ccccc3Sc3ccc(C(F)(F)F)cc32)CC1 [FLUPHENAZINE] too.
Compound metabolized

Please answer likewise for NC(CO)(CO)CO.O=C(c1ccccc1)c1ccc2n1CCC2C(=O)O (centres undefined) [KETOROLAC TROMETHAMINE]
Compound metabolized

Same read-out for Cc1ccnc2c1NC(=O)c1cccnc1N2C1CC1 [NEVIRAPINE] ?
Compound NOT metabolized

One more compound: CCOC(=O)[C@H](CCc1ccccc1)N[C@@H](C)C(=O)N1[C@H](C(=O)O)C[C@H]2CCCC[C@@H]21 [TRANDOLAPRIL]
Compound metabolized

Now consider Cc1ccc(/C(=C\CN2CCCC2)c2ccccn2)cc1 [TRIPROLIDINE] and answer again.
Compound NOT metabolized

CC(C)c1nc(CN(C)C(=O)N[C@H](C(=O)N[C@@H](Cc2ccccc2)C[C@H](O)[C@H](Cc2ccccc2)NC(=O)OCc2cncs2)C(C)C)cs1 [RITONAVIR] ?
Compound metabolized

Now this one: CC(C)N(CCC(C(N)=O)(c1ccccc1)c1ccccn1)C(C)C.O=P(O)(O)O (centres undefined) [DISOPYRAMIDE PHOSPHATE]
Compound NOT metabolized

Thanks! And CC(C)c1c(C(=O)Nc2ccccc2)c(-c2ccccc2)c(-c2ccc(F)cc2)n1CC[C@@H](O)C[C@@H](O)CC(=O)O [ATORVASTATIN] ?
Compound NOT metabolized

----------
assay: The drug is tested on WLS-220 corresponding to human gut metagenome with ENA study accession number: PRJEB37062 and ENA sample accession number: ERS12561769 for biotransformation under anaerobic condition. The drug concentrations were measured over 9 timepoints collected between 0 and 24 hours of incubation by liquid-chromatography-coupled mass spectrometry (LC–MS); settings: 2 µM
reported endpoint: Bacterial Biotransformation

Previously resolved entries follow.
O=P(O)(O)O.c1ccc(CN(CC2=NCCN2)c2ccccc2)cc1 [ANTAZOLINE PHOSPHATE]    Compound metabolized
CC[C@H](C)C(=O)O[C@H]1C[C@@H](C)C=C2C=C[C@H](C)[C@H](CC[C@@H]3C[C@@H](O)CC(=O)O3)[C@H]21    Compound NOT metabolized
CC(O)(CS(=O)(=O)c1ccc(F)cc1)C(=O)Nc1ccc(C#N)c(C(F)(F)F)c1 (configuration not stated) [BICALUTAMIDE]    Compound NOT metabolized
CC(=O)O[C@]1(C(C)=O)CC[C@H]2[C@@H]3C=C(Cl)C4=CC(=O)[C@@H]5C[C@@H]5[C@]4(C)[C@H]3CC[C@@]21C [CYPROTERONE ACETATE]    Compound metabolized
C=CCN1CC[C@]23c4c5ccc(O)c4O[C@H]2C(=O)CC[C@@]3(O)[C@H]1C5    Compound NOT metabolized
C=CCc1ccccc1OCC(O)CNC(C)C (configuration not stated)    Compound metabolized
O=C1[C@H](CC[C@H](O)c2ccc(F)cc2)[C@@H](c2ccc(O)cc2)N1c1ccc(F)cc1    Compound metabolized
NS(=O)(=O)c1cc2c(cc1Cl)N=C(CSCc1ccccc1)NS2(=O)=O [BENZTHIAZIDE]    Compound NOT metabolized

Need Bacterial Biotransformation, item CCN(CC)CC#CCOC(=O)C(O)(c1ccccc1)C1CCCCC1.Cl (configuration not stated) [OXYBUTYNIN CHLORIDE]
Compound metabolized

----------
assay: The drug is tested on WLS-370 corresponding to human gut metagenome with ENA study accession number: PRJEB37062 and ENA sample accession number: ERS12561793 for biotransformation under anaerobic condition. The drug concentrations were measured over 9 timepoints collected between 0 and 24 hours of incubation by liquid-chromatography-coupled mass spectrometry (LC–MS); settings: 2 µM
reported endpoint: Bacterial Biotransformation

Below, 5 compounds whose answers are already recorded.
Cc1nc2n(c(=O)c1CCN1CCC(c3noc4cc(F)ccc34)CC1)CCCC2 [RISPERIDONE]    Compound metabolized
CCOc1ccc(NC(C)=O)cc1 [PHENACETIN]    Compound NOT metabolized
CCCC1O[C@@H]2C[C@H]3[C@@H]4CCC5=CC(=O)C=C[C@]5(C)[C@H]4[C@@H](O)C[C@]3(C)[C@]2(C(=O)CO)O1 (some centres undefined) [BUDESONIDE]    Compound metabolized
CN(C)CC(c1ccc(O)cc1)C1(O)CCCCC1.O=C(O)CCC(=O)O (centres undefined) [DESVENLAFAXINE SUCCINATE]    Compound NOT metabolized
C=CCc1ccccc1OCC(O)CNC(C)C (centres undefined) [ALPRENOLOL]    Compound NOT metabolized

Suppose we examine the compound CCN(CC)CCOC(=O)C(Cc1cccc2ccccc12)CC1CCCO1.O=C(O)C(=O)O (centres undefined) [NAFRONYL OXALATE] ; what Bacterial Biotransformation value has been reported?
Compound NOT metabolized

// repeat for CO[C@]12C[C@@H](COC(=O)c3cncc(Br)c3)CN(C)[C@@H]1Cc1cn(C)c3cccc2c13 [NICERGOLINE] and report
Compound metabolized

// same read-out, input: CCCCC1=NC2(CCCC2)C(=O)N1Cc1ccc(-c2ccccc2-c2nnn[nH]2)cc1 [IRBESARTAN]
Compound metabolized

Please do the same for CNCCC(Oc1ccc(C(F)(F)F)cc1)c1ccccc1 (centres undefined) [FLUOXETINE] as well.
Compound metabolized

----------
conditions: human gut metagenome, 24 h, 2 µM
reported endpoint: Bacterial Biotransformation

See these solved cases before continuing.
c1ccc([C@H]2CN3CCSC3=N2)cc1    Compound metabolized
COc1ccc2c3c1O[C@H]1C[C@@H](O)C=C[C@@]31CCN(C)C2    Compound NOT metabolized
Cc1cn([C@H]2C[C@H](N=[N+]=[N-])[C@@H](CO)O2)c(=O)[nH]c1=O    Compound NOT metabolized
CCCC1O[C@@H]2C[C@H]3[C@@H]4CCC5=CC(=O)C=C[C@]5(C)[C@H]4[C@@H](O)C[C@]3(C)[C@]2(C(=O)CO)O1 (some centres not stated) [BUDESONIDE]    Compound metabolized
O=C(CCCN1CCC(O)(c2ccc(Cl)cc2)CC1)c1ccc(F)cc1    Compound NOT metabolized

May I ask what Bacterial Biotransformation has been recorded for CN1C(=O)CCS(=O)(=O)C1c1ccc(Cl)cc1 (configuration not stated) ?
Compound NOT metabolized

Here is the next compound: COc1ccccc1OCC(O)CN1CCN(CC(=O)Nc2c(C)cccc2C)CC1 (configuration not stated)
Compound NOT metabolized

Would you mind doing CN(C)CCc1c[nH]c2ccc(Cn3cncn3)cc12.O=C(O)c1ccccc1 [RIZATRIPTAN BENZOATE] as well?
Compound NOT metabolized

Moving on to CO[C@]12C[C@@H](COC(=O)c3cncc(Br)c3)CN(C)[C@@H]1Cc1cn(C)c3cccc2c13
Compound NOT metabolized

Proceed to CN1C[C@H](C(=O)N[C@]2(C)O[C@@]3(O)[C@@H]4CCCN4C(=O)[C@H](Cc4ccccc4)N3C2=O)C=C2c3cccc4[nH]cc(c34)C[C@H]21.CN1C[C@H](C(=O)N[C@]2(C)O[C@@]3(O)[C@@H]4CCCN4C(=O)[C@H](Cc4ccccc4)N3C2=O)C=C2c3cccc4[nH]cc(c34)C[C@H]21.O=C(O)C(O)C(O)C(=O)O [ERGOTAMINE TARTRATE]
Compound metabolized

What do you get for CC(C)c1nc(CN(C)C(=O)N[C@H](C(=O)N[C@@H](Cc2ccccc2)C[C@H](O)[C@H](Cc2ccccc2)NC(=O)OCc2cncs2)C(C)C)cs1 ?
Compound NOT metabolized
